Values were extracted from ChEMBL document CHEMBL4622913.

system: 4T1; experiment: Antiproliferative activity against mouse 4T1 cells assessed as reduction in cell viability after 72 hrs by MTT assay; type: functional, cell-based; settings: 4T1, 72 h
Please respond with reported IC50 for every item in the list.

Entry O=C(CC[P+](c1ccccc1)(c1ccccc1)C1CCCCC1)Nc1ccc2c(c1)B(O)OC2 — recorded IC50 = > 100 µM

Entry Cc1ccc([P+](CCC(=O)Nc2ccc3c(c2)B(O)OC3)(c2ccc(C)cc2)c2ccc(C)cc2)cc1 — recorded IC50 = 50 µM

Entry O=C(CC[P+](c1ccccc1)(c1ccccc1)c1ccccc1)Nc1ccc2c(c1)B(O)OC2 — recorded IC50 = > 100 µM

Entry COc1ccc([P+](CCC(=O)Nc2ccc3c(c2)B(O)OC3)(c2ccc(OC)cc2)c2ccc(OC)cc2)cc1 — recorded IC50 = > 100 µM

Entry O=C(CC[P+](c1ccc(F)cc1)(c1ccc(F)cc1)c1ccc(F)cc1)Nc1ccc2c(c1)B(O)OC2 — recorded IC50 = > 100 µM

Entry O=C(CCBr)Nc1ccc2c(c1)B(O)OC2 — recorded IC50 = > 100 µM
